Target protein (sequence): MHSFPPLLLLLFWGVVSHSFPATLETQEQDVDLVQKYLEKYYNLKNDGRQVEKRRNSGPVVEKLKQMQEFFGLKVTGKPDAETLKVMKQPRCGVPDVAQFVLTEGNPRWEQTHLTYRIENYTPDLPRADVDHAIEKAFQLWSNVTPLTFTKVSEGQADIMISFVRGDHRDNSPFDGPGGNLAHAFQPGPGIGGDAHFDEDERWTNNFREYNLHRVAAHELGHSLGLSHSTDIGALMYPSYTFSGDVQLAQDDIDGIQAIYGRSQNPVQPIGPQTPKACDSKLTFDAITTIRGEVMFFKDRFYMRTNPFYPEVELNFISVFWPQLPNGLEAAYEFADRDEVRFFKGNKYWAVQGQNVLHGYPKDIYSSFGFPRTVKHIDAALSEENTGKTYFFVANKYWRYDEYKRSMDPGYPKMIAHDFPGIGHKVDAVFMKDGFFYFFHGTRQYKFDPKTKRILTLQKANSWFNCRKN
pIC50: −log10 of the molar value.
reported.metric: pIC50

Would you please look over these solved cases?
entry.smiles	pIC50
Oc1nc(SCc2ccc(Cl)cc2)nc2c1CCC2	< 4.40
Cc1ccc(CSc2nc3c(c(=O)[nH]2)CCC3)cc1	< 4.40

Note: attention shifts to another entry.
Query: Which pIC50 is listed for COC(=O)c1ccc(CSc2nc3c(c(=O)[nH]2)CCC3)cc1 ?
Result: < 4.40

###

- assay.system: Collagenase 3 (Homo sapiens, UniProt P45452)
- assay: Noncompetitive inhibition of human full length recombinant MMP13 using triple-helical fTHP-15 as substrate by Lineweaver-Burk plot analysis
reported.metric: pKi
Worth noting: pKi values are minus log10 of concentrations stated in mol/L.

entry.smiles	pKi
Cc1ccc(CSc2nc3c(c(=O)[nH]2)CCC3)cc1	6.08
COC(=O)c1ccc(CSc2nc3c(c(=O)[nH]2)CCC3)cc1	5.82

Query: Test system Collagenase 3 (Homo sapiens, UniProt P45452); read-out pKi; what value for Oc1nc(SCc2ccc(Cl)cc2)nc2c1CCC2 ?
Result: 5.42

###

- assay.system: Neutrophil collagenase (Homo sapiens)
- assay: Inhibition of MMP8 expressed in CHO-K1 cells using triple-helical fTHP-15 as substrate after 4 hrs by FRET assay
- Sequence (P22894 whole entry): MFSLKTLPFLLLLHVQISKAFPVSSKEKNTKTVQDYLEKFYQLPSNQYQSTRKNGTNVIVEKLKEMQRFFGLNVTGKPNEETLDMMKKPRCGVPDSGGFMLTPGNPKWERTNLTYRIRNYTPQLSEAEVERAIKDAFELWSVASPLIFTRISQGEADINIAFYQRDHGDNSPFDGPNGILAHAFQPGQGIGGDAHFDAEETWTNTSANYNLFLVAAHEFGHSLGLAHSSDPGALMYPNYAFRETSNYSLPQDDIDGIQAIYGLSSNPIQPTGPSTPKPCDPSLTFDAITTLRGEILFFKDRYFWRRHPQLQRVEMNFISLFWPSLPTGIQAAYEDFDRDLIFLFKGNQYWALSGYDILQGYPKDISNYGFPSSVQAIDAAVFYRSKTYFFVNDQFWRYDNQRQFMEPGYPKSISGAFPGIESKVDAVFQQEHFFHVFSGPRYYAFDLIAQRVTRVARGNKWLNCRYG
pIC50: −log10 of the molar value.
In this section we review reported pIC50 values for a set of molecules.

Would you please look over these solved cases?
entry.smiles	reported.metric	result
COC(=O)c1ccc(CSc2nc3c(c(=O)[nH]2)CCC3)cc1	pIC50	< 4.40
Cc1ccc(CSc2nc3c(c(=O)[nH]2)CCC3)cc1	pIC50	< 4.40

Note: attention shifts to another entry.
Query: Which pIC50 is listed for Oc1nc(SCc2ccc(Cl)cc2)nc2c1CCC2 ?
Result: < 4.40

###

- assay.system: Neutrophil collagenase (Homo sapiens, UniProt P22894)
- assay: Inhibition of MMP8 expressed in CHO-K1 cells using triple-helical fTHP-15 as substrate at 40 uM after 4 hrs by FRET assay
- Sequence (P22894 101-467 limits assumed): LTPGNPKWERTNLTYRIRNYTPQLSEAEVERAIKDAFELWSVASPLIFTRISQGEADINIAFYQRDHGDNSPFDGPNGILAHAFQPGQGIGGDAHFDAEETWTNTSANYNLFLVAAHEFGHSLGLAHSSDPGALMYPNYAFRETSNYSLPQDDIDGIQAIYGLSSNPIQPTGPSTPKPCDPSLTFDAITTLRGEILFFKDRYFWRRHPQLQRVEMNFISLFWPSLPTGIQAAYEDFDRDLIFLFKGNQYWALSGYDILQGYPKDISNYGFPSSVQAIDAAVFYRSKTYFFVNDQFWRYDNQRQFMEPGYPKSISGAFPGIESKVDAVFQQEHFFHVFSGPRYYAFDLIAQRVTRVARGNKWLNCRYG
In this section we review reported inhibition values for a set of compounds.
Answer format: numeric, % implied, no suffix.

Query: Which inhibition is listed for Cc1ccc(CSc2nc(O)c3c(n2)CCC3)cc1 ?
Result: 0

Query: Would you kindly repeat that for COC(=O)c1ccc(CSc2nc3c(c(=O)[nH]2)CCC3)cc1 ?
Result: 8

Query: Would you kindly repeat that for Cc1nc(SCc2ccc(Br)cc2)nc(O)c1C ?
Result: 20

Query: Would you kindly repeat that for Oc1nc(SCc2ccc(Cl)cc2)nc2c1CCC2 ?
Result: 17

###

- assay.system: Collagenase 3 (Homo sapiens)
- assay: Inhibition of human full length recombinant MMP13 using triple-helical fTHP-15 as substrate at 40 uM after 4 hrs by FRET assay
The source made the active and inactive calls. No cut-off for these calls is given here.
reported.metric: inhibition

Would you please look over these solved cases?
entry.smiles	assay.system	result
Oc1nc(SCc2ccc(Cl)cc2)nc2c1CCC2	Collagenase 3 (Homo sapiens)	49.1%
O=c1[nH]c(SCc2ccc(Cl)cc2)nc(O)c1Cc1ccccc1	Collagenase 3 (Homo sapiens)	inactive
CS(=O)(=O)c1ccc(CSc2nc3c(c(=O)[nH]2)CCC3)cc1	Collagenase 3 (Homo sapiens)	46.7%
Cc1cccc(CSc2nc3c(c(=O)[nH]2)CCC3)c1	Collagenase 3 (Homo sapiens)	45.2%
O=c1[nH]c(SCCc2ccccc2)nc2c1CCC2	Collagenase 3 (Homo sapiens)	7.7%

Query: Which inhibition is listed for O=c1[nH]c(SCc2ccc(OC(F)(F)F)cc2)nc2c1CCC2 ?
Result: 34.4%

Query: Would you kindly repeat that for Cc1oc(-c2cccc(Cl)c2)cc1CSc1nc2c(c(=O)[nH]1)CCC2 ?
Result: inactive

Query: Would you kindly repeat that for O=C(CSc1nc2c(c(=O)[nH]1)CCC2)c1ccccc1 ?
Result: inactive

Query: Would you kindly repeat that for Oc1nc(SCc2ccc(Cl)cc2)nc2ccccc12 ?
Result: inactive

Query: Would you kindly repeat that for O=C(O)c1ccc(CSc2nc3c(c(=O)[nH]2)CCC3)cc1 ?
Result: 2.2%

Query: Would you kindly repeat that for COC(=O)c1ccc(CSc2nc3c(c(=O)[nH]2)CCC3)cc1 ?
Result: 61%

Query: Would you kindly repeat that for Cc1ccc(CSc2nc(O)c3c(n2)CCC3)cc1 ?
Result: 67%

###

- assay.system: Collagenase 3 (Homo sapiens, UniProt P45452)
- assay: Inhibition of human full length recombinant MMP13 using triple-helical fTHP-15 as substrate at 40 uM after 4 hrs by FRET assay
Calls of active or inactive are those of the source. No cut-off for these calls is given here.
reported.metric: inhibition

Would you please look over these solved cases?
molecule	inhibition
O=c1[nH]c(SCc2ccc(Cl)cc2)nc2c1C(Cc1ccccc1)CC2 (stereo unspecified)	37.7%
CCCc1cc(O)nc(SCc2ccc(Cl)cc2)n1	inactive
O=S(=O)(Nc1cc(O)nc(SCc2ccc(Cl)cc2)n1)c1ccccc1	31.2%
Cc1ccccc1S(=O)(=O)Nc1cc(=O)[nH]c(SCc2ccc(Cl)cc2)n1	30.5%
O=c1[nH]c(SCCCc2ccccc2)nc2c1CCC2	7.2%
O=C(CSc1nc2c(c(=O)[nH]1)C(Cc1ccccc1)CC2)c1ccccc1 (stereo unspecified)	16%
CCCCSc1nc(O)c2c(n1)CCC2	17.1%
O=c1[nH]c(SCc2coc(-c3cccc(Cl)c3)n2)nc2c1CCC2	inactive

Query: Which inhibition is listed for Nc1cc(O)nc(SCc2ccc(Cl)cc2)n1 ?
Result: 37%

Query: Would you kindly repeat that for Cc1cc(=O)[nH]c(SCc2ccc(Cl)cc2)n1 ?
Result: 32.9%

###

- assay.system: UniProt:P45452
- assay: Inhibition of human full length recombinant MMP13 using triple-helical fTHP-15 as substrate at 40 uM after 4 hrs by FRET assay
Activity calls are given as the source filed them. The calls are words filed in the database; no cut-off is given here.
reported.metric: inhibition

Would you please look over these solved cases?
entry.smiles	assay.system	inhibition
Oc1nc(SCc2ccc(Cl)cc2)nc2ccsc12	UniProt:P45452	36.6%
Oc1[nH]c(SCc2ccc(Cl)cc2)nc2nncc1-2	UniProt:P45452	inactive
CC(=O)Nc1c(O)nc(SCc2ccc(Cl)cc2)nc1O	UniProt:P45452	inactive
Cc1cccc(CSc2nc(O)c3c(n2)CCCC3)c1	UniProt:P45452	inactive
C#CCSc1nc2c(c(=O)[nH]1)CCC2	UniProt:P45452	10.3%

Note: attention shifts to another entry.
Query: Test system UniProt:P45452; read-out inhibition; what value for Cc1nc(SCc2ccc(Br)cc2)nc(O)c1C ?
Result: 55.8%
